# LogP listing for each entry below
- assay_remarks: physchem
- Type: physicochemical
- Procedure: Measurement of Log P values as provided herein was performed according to EEC directive 79/831 Annex V.A8 by HPLC (High Performance Liquid Chromatography) on reversed phase columns with the following methods: […] If more than one Log P value is available within the same method, all the values are given and separated by “+”. […] Lambda-max-values were determined using UV-spectra from 200 nm to 400 nm and the peak values of the chromatographic signals
Marks after values point to notes of the source that are not given here.
measured_metric: LogP

- compound: "Cc1cccc(Oc2cnc(C)cc2C(=O)NCC(F)(F)c2ccc(C)cc2Cl)c1 [Compound I-068]"
  meas_value: "4.06^[a]"
- compound: "Cc1ccc(C(F)(F)CNC(=O)c2cc(C3CC3)ncc2Oc2cccc(C3CC3)c2)c(C)c1 [Compound I-239]"
  meas_value: "5.41^[a]"
- compound: "Cc1ccc(CCNC(=O)c2cc(-c3ccncc3Cl)ncc2Oc2cccc(C(F)(F)F)c2)c(C)c1 [Compound I-204]"
  meas_value: "4.61^[a]"
- compound: "O=C(NCC(F)(F)c1ccc(Br)cc1Cl)c1cc(Cl)ncc1Br [Compound 3-004]"
  meas_value: "3.68^[a]"
- compound: "Cc1ccc(CCNC(=O)c2cc(Cl)ncc2Oc2ccc3ccccc3c2)c(C)c1 [Compound I-168]"
  meas_value: "5.03^[a]"
- compound: "Cc1cc(C(=O)NCC(F)c2ccc(Cl)cc2Cl)c(Oc2cccc(C3CC3)c2)cn1 (centres unmarked) [Compound I-220]"
  meas_value: "4.44^[a]"
- compound: "Cc1ccc(C(F)(F)CNC(=O)c2cc(C)ncc2Oc2cccc(C(F)(F)F)c2)c(Cl)c1 [Compound I-033]"
  meas_value: "4.19^[a]"
- compound: "C#Cc1cc(C(=O)NCCc2ccc(C)cc2C)c(Oc2cccc(C(F)(F)F)c2)cn1 [Compound I-191]"
  meas_value: "4.34^[a]"
- compound: "CC(C)Oc1ccc(CCNC(=O)c2cc(Cl)ncc2Oc2cccc(C(F)(F)F)c2)cn1 [Compound I-106]"
  meas_value: "4.08^[a]"
- compound: "Cc1ccc(CCNC(=O)c2cc(C(C)F)ncc2Oc2cccc(C(F)(F)F)c2)c(C)c1 (centres unmarked) [Compound I-114]"
  meas_value: "4.62^[a]"
- compound: "Cc1ccc(CCNC(=O)c2cc(Cl)ncc2Oc2ccc(F)c(Cl)c2)c(C)c1 [Compound I-154]"
  meas_value: "4.72^[a]"
- compound: "Cc1ccc(CCNC(=O)c2cc(Cl)ncc2Oc2cccc(Br)c2)c(C)c1 [Compound I-137]"
  meas_value: "4.86^[a]"
- compound: "O=C(NCC(F)c1ccc(Cl)cc1Cl)c1cc(Cl)ncc1Oc1cccc(C(F)F)c1 (racemic) [Compound I-037]"
  meas_value: "4.40^[a]"
- compound: "Cc1cc(C(=O)NCC(F)(F)c2ccc(Br)cc2Cl)c(Oc2cccc(C(F)F)c2)cn1 [Compound I-236]"
  meas_value: "3.74^[a]"
- compound: "Cc1ccc(CCNC(=O)c2cc(Cl)ncc2Oc2cccc(C3CC3)c2)c(C)c1 [Compound I-214]"
  meas_value: "5.14^[a]"
- compound: "Cc1ccc(CCNC(=O)c2cc(C)ncc2Oc2cccc(Cl)c2)c(C)c1 [Compound I-234]"
  meas_value: "3.96^[a]"
- compound: "Cc1ccc(CCNC(=O)c2cc(C3CCCC3)ncc2Oc2cccc(C(F)(F)F)c2)c(C)c1 [Compound I-122]"
  meas_value: "5.57^[a]"
- compound: "O=C(NCC(F)c1ccc(Cl)c(Cl)c1)c1cc(Cl)ncc1Oc1cccc(C(F)(F)F)c1 (racemic) [Compound I-082]"
  meas_value: "4.81^[a]"
- compound: "Cc1cccc(Oc2cnc(C)cc2C(=O)NCC(F)(F)c2ccc(C)cc2C)c1 [Compound I-047]"
  meas_value: "4.08^[a]"
- compound: "Cc1ccc(C(F)CNC(=O)c2cc(C)ncc2Oc2cccc(C3CC3)c2F)c(Cl)c1 (racemic) [Compound I-076]"
  meas_value: "4.49^[a]"
- compound: "Cc1ccc(CCNC(=O)c2cc(Cl)ncc2Oc2cc(F)c(F)cc2F)c(C)c1 [Compound I-233]"
  meas_value: "4.42^[a]"
- compound: "Cc1ccc(CCNC(=O)c2cc(C3CC3)ncc2Oc2cccc(C3CC3)c2F)c(C)c1 [Compound I-243]"
  meas_value: "5.32^[a]"
- compound: "O=C(NCC(F)(F)c1ccc(Cl)cc1)c1cc(Cl)ncc1Oc1cccc(C(F)(F)F)c1 [Compound I-011]"
  meas_value: "4.41^[a]"
- compound: "Cc1ccc(CCNC(=O)c2cc(Cl)ncc2Oc2cccc(C(F)(F)F)c2)o1 [Compound I-095]"
  meas_value: "4.05^[a]"
- compound: "Cc1ccc(C(F)(F)CNC(=O)c2cc(Cl)ncc2Oc2cncc(C(F)(F)F)c2)c(C)c1 [Compound I-163]"
  meas_value: "4.15^[a]"
- compound: "Cc1ccc(C(F)(F)CNC(=O)c2cc(C3CC3)ncc2Oc2cccc(C3CC3)c2F)c(C)c1 [Compound I-246]"
  meas_value: "5.36^[a]"
- compound: "Cc1ccc(CCNC(=O)c2ccncc2Oc2cccc(C(F)(F)F)c2)c(C)c1 [Compound I-184]"
  meas_value: "3.11^[a]"
- compound: "C=C(OCC)c1cc(C(=O)NCCc2ccc(C)cc2C)c(Oc2cccc(C(F)(F)F)c2)cn1 [Compound I-051]"
  meas_value: "4.84^[a]"
- compound: "Cc1ccc(C(F)(F)CNC(=O)c2cc(Cl)nc(F)c2Oc2cccc(C(F)(F)F)c2)c(C)c1 [Compound I-092]"
  meas_value: "5.04^[a]"
- compound: "CCc1cc(C(=O)NCCc2ccc(C)cc2C)c(Oc2cccc(C(F)(F)F)c2)cn1 [Compound I-030]"
  meas_value: "4.49^[a]"
- compound: "Cc1cc(C(=O)NCC(F)c2ccc(Cl)cc2C)c(Oc2cccc(C3CC3)c2F)cn1 (centres unmarked) [Compound I-205]"
  meas_value: "4.37^[a]"
- compound: "Cc1cccc(Oc2cnc(Cl)cc2C(=O)NCC(F)(F)c2ccc(Br)cc2Cl)c1 [Compound I-145]"
  meas_value: "5.08^[a]"

---

- assay_remarks: physchem
- Assay type: physicochemical
Marks after values point to notes of the source that are not given here.

- compound: "Cc1ccc(C(F)(F)CNC(=O)c2cc(Cl)ncc2Br)c(C)c1"
  LogP: "3.57^[a]"
- compound: "Cc1ccc(C(F)(F)CNC(=O)c2c(Oc3cccc(C(F)(F)F)c3)cnc(Cl)c2N2CCCC2)c(C)c1"
  LogP: "5.49^[a]"
- compound: "CCN(CCc1ccccc1)C(=O)c1cc(Cl)ncc1Oc1cccc(C(F)(F)F)c1"
  LogP: "4.44^[a]"
- compound: "C=Cc1c(Cl)ncc(Oc2cccc(C(F)(F)F)c2)c1C(=O)NCC(F)(F)c1ccc(C)cc1C"
  LogP: "4.93^[a]"
- compound: "Cc1ccc(CCNC(=O)c2cc(Cl)ncc2Oc2ccc(Cl)c(Cl)c2)c(C)c1"
  LogP: "5.08^[a]"
- compound: "O=C(NCC(F)(F)c1ccc(C2CC2)cc1Cl)c1cc(C2CC2)ncc1Oc1cccc(C2CC2)c1F"
  LogP: "5.54^[a]"
- compound: "Cc1cc(C(=O)NC(C)c2cn(C)c3ccccc23)c(Oc2cccc(C(F)(F)F)c2)cn1 (centres unmarked)"
  LogP: "3.64^[a]"
- compound: "O=C(NCC(F)(F)c1ccc(Br)cc1Cl)c1cc(Cl)ncc1Oc1cccc(C(F)F)c1"
  LogP: "4.54^[a]"

---

- assay_remarks: physchem
- Type: physicochemical
- Method: Measurement of Log P values as provided herein was performed according to EEC directive 79/831 Annex V.A8 by HPLC (High Performance Liquid Chromatography) on reversed phase columns with the following methods: […] If more than one Log P value is available within the same method, all the values are given and separated by “+”. […] Lambda-max-values were determined using UV-spectra from 200 nm to 400 nm and the peak values of the chromatographic signals
Marks after values point to notes of the source that are not given here.

- compound: "Cc1cccc(Oc2cnc(Cl)cc2C(=O)O)c1 [Compound 1-008]"
  LogP: "2.60^[a]"
- compound: "O=C(NCCc1csc2ccc(Cl)cc12)c1cc(Cl)ncc1Oc1cccc(C(F)(F)F)c1 [Compound I-213]"
  LogP: "5.00^[a]"
- compound: "COC(=O)c1cc(C#C[Si](C)(C)C)ncc1Oc1cccc(C(F)(F)F)c1 [Compound 1-004]"
  LogP: "5.35^[a]"
- compound: "O=C(NCC(F)c1ccc(Cl)cc1Cl)c1cc(C2CC2)ncc1Oc1cccc(C2CC2)c1 (centres unmarked) [Compound I-253]"
  LogP: "5.42^[a]"
- compound: "O=C(O)c1cc(Cl)ncc1Oc1cccc(C2CC2)c1F [Compound 1-009]"
  LogP: "2.97^[a]"
- compound: "Cc1cccc(Oc2cnc(Cl)cc2C(=O)NCC(F)(F)c2ccc(C)cc2C)c1 [Compound I-044]"
  LogP: "4.85^[a]"
- compound: "C[Si](C)(C)C#Cc1cc(C(=O)NCC(F)c2ccc(Cl)cc2Cl)c(Oc2cccc(C(F)(F)F)c2)cn1 (racemic) [Compound I-176]"
  LogP: "6.01^[a]"
- compound: "Cc1ccc(CCNC(=O)c2cc(Cl)ncc2Oc2cccc(C3CC3)c2F)c(C)c1 [Compound I-062]"
  LogP: "5.11^[a]"
